Recorded pKd, one value per entry.
Molecular target: T1, recombinant human Trop-2-his protein (ACCESSION NO.: NP_002344.2, AA 1-274) (human, UniProt P09758 27-274)
T1 construct: range 27-274; also called recombinant human Trop-2 protein; recombinant human Trop-2 extracellular domain; not shown: his tag
T1 sequence (looked up): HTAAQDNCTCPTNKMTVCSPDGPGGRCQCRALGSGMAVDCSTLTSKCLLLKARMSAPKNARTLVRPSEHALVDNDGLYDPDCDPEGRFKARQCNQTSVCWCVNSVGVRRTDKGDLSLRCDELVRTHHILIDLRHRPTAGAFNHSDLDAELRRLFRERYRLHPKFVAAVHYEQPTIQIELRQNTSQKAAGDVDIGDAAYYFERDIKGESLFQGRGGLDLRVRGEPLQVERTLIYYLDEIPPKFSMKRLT
Test: BLI, antibody on AHC sensor, Trop-2-his 60 nM
Quick note: pKd means taking -log10 of the concentration in moles per liter.

Briefly, pKd measured for h23-12-18 (antibody, human IgG1, kappa, V domains shown) VH: QVQLVQSGAEVKKPGASVKVSCKASGYTFTSYWMHWVRQAPGQGLEWMGEITPSDNYGSYNQKFKGRVTITRDTSTSTAYMELSSLRSEDTAVYYCARGHGNYVSFDYWGQGTLVTVSS VL: DIQMTQSPSSLSASVGDRVTITCRASQDISNYLNWYQQKPGKAPKLLIYYTSSLHSGVPSRFSGSGSGTDFTLTISSLQPEDFATYFCQQGYTLPPYTFGQGTKLEIKR : 9.00

get_value(item= h23-12-12 (antibody, human IgG1, kappa, V domains shown) VH: QVQLVQSGAEVKKPGASVKVSCKASGYTFTSYWMHWVRQAPGQGLEWMGEITPSDNYTSYAQKFKGRVTITRDTSTSTAYMELSSLRSEDTAVYYCARGHGNYVSFDYWGQGTLVTVSS VL: DIQMTQSPSSLSASVGDRVTITCRASQDISNYLNWYQQKPGKAPKLLIYYASRLHSGVPSRFSGSGSGTDFTLTISSLQPEDFATYFCQQGYTLPPYTFGQGTKLEIKR , readout=pKd) returns 7.58

Lab book: pKd of h23-12-33 (antibody, human IgG1, kappa, V domains shown) VH: QVQLVQSGAEVKKPGASVKVSCKASGYTFTSYWMHWVRQAPGQGLEWMGEITPSDNYTSYAQKFKGRVTITRDTSTSTAYMELSSLRSEDTAVYYCARGHGNYVSFDYWGQGTLVTVSS VL: DIQMTQSPSSLSASVGDRVTITCRASQDISNYLNWYQQKPGKAPKLLIYYTSRLQSGVPSRFSGSGSGTDFTLTISSLQPEDFATYFCQQGYTLPPYTFGQGTKLEIKR noted as 8.05
